# target.or.system: Human IgG (Sigma-Aldrich Corporation) (human)
# assay.summary: Biacore SPR; protein on NTA chip, human IgG injected
outcome.measure: Kd (nM)
Numbers only; they are read as nM.

IN: Look up Kd of Protein expressed from pGG3T (SEQ ID NO: 25 repeated three times, n = 3) (designed binder) AYRLILNGRTLRGETTTEAVDAATAERVFRQYANDNGVDGEWTYDDATRTFTVTERPEVIDASELTPAVTPGAYRLILNGRTLRGETTTEAVDAATAERVFRQYANDNGVDGEWTYDDATRTFTVTERPEVIDASELTPAVTPGAYRLILNGRTLRGETTTEAVDAATAERVFRQYANDNGVDGEWTYDDATRTFTVTERPEVIDASELTPAVTPGGGGGCADDDDDDHHHHHH and report it.
OUT: 0.068

IN: Look up Kd of pPL (SEQ ID NO: 3) (designed binder) ATIRANLIYADGRTQTAEFRGTFEEATAEAYRYADLLARENGRYTVDVADRGYTLNIRFAGGGGGCADDDDDDHHHHHH and report it.
OUT: 2.06

IN: Look up Kd of Protein expressed from pLL3T (SEQ ID NO: 26 repeated three times, n = 3) (designed binder) ATIRANLIYADGRTQTAEFRGTFEEATAEAYRYADLLARENGRYTVDVADRGYTLNIRFAPGATIRANLIYADGRTQTAEFRGTFEEATAEAYRYADLLARENGRYTVDVADRGYTLNIRFAPGATIRANLIYADGRTQTAEFRGTFEEATAEAYRYADLLARENGRYTVDVADRGYTLNIRFAPGGGGGCADDDDDDHHHHHH and report it.
OUT: 0.788

IN: Look up Kd of pPG (SEQ ID NO: 2) (designed binder) AYRLILNGRTLRGETTTEAVDAATAERVFRQYANDNGVDGEWTYDDATRTFTVTERPEVIDASELTPAVTGGGGCADDDDDDHHHHHH and report it.
OUT: 0.384
